Data origin: patent US6608036B1

Test system: telomerase (affinity-purified extract from 293 cells over-expressing hTERT)
Assay: Bio-Tel FlashPlate telomerase activity assay
Type: biochemical, human
Conditions: telomerase inhibition, thiophosphoramidate backbone; read-out: IC50(nM) thiophosphoramidate
parameter: IC50 (nM)
One number for each entry, in nM.

Here is how some substances turned out for IC50.
5′-GTTGAGTGTAG-3′ (listed as DNA, chemistry not fully specified) [SEQ ID NO:3 thiophosphoramidate]: 177
5′-GTTAGGGTTAG-3′ (listed as DNA, chemistry not fully specified) [SEQ ID NO:1 thiophosphoramidate]: 0.89
5′-TAGGTGTAAGCAA-3′ (listed as DNA, chemistry not fully specified) [SEQ ID NO:4 thiophosphoramidate]: 79.3

Moving on to another substance below.
Req: Identify measured IC50 corresponding to 5′-TAGGGTTAGACAA-3′ (thiophosphoramidate backbone, chemistry not fully specified) [SEQ ID NO:2 thiophosphoramidate]
Resp: 0.41
